meta.source: patent US20250027068

Biological target: pooled human IgG (human IgG1, 2, 3 and 4)
quantity-name: Enzyme Activity Endpoint Assay: Fc (ng/µL)
// return numeric value only (unit: ng/µL, not printed)

Enzyme Activity Endpoint Assay: Fc for PRT-567 (protein) MANQEIRYSEETPSTITSVWTKGVTPPTDFIQNEDVLHAPYIANQGWYDITKTFNGKDDLLCGAATAGNMLHWWFDQNKEQIENYLKKHPEKQKINFNGEQMFDVKEAIDTKDSQTDSALFEYFKDKAFPYLSTKHLGVFPDHVIDMFINGYRLSLTNHGPTPVKRGTKDPRGGIFDAVFTRGDQSKLLTSRHDFKEKTLNEISDLIKQELTEGKALGLSHTYANVRINHVINLWGADFNAEGNLEAIYVTDSDSNASIGMKKYYVGVNSAGKVAISAKEIEGDNIGAQVLGLFTLSTGQDIWNQTNLEHHHHHH is 297
